- Test system: wheat
- assay-summary: Test A pre-/postemergence greenhouse test
- Assay type: in vivo, Triticum aestivum
- setup-conditions: Postemergence, 125 g ai/ha; 0 to 100 scale where 0 is no effect and 100 is complete control
Record t whenever Plant response rating, Wheat is at 20 or higher; record f when lower.

compound: CCn1nc(C(F)(F)F)c(C(C)S(=O)(=O)c2cccc[n+]2[O-])c1OCC(F)(F)F (centres unmarked) [Compound 69]
qualitative-label: t

compound: Cn1nc(C(F)(F)F)c(CS(=O)(=O)c2ccc(Cl)c[n+]2[O-])c1OCC(F)(F)C(F)(F)F [Compound 97]
qualitative-label: f

compound: [O-][n+]1ccccc1[S+]([O-])Cc1c(C(F)(F)F)nn(CC(F)(F)F)c1Cl (centres unmarked) [Compound 43]
qualitative-label: t

compound: CC(c1c(C(F)(F)F)nn(CC(F)(F)F)c1Cl)[S+]([O-])c1cccc[n+]1[O-] (centres unmarked) [Compound 46]
qualitative-label: f

compound: CCc1cc[n+]([O-])c([S+]([O-])Cc2c(C(F)(F)F)nn(C)c2OCC(F)(F)F)c1 (centres unmarked) [Compound 59]
qualitative-label: t

compound: Cc1cc([S+]([O-])Cc2c(C(F)(F)F)nn(C)c2OCC(F)(F)F)[n+]([O-])cc1Cl (centres unmarked) [Compound 70]
qualitative-label: t

* * *

- System: common (oilseed) sunflower
- assay-summary: Test C pre-/postemergence test
- Type: in vivo, Helianthus annuus
- setup-conditions: Preemergence, 31 g ai/ha; scale 0 to 100 (0 no effect, 100 complete control)
# reported Plant response rating, Sunflower; entries follow

molecule: Cc1cc[n+]([O-])c(S(=O)(=O)Cc2c(C(F)(F)F)nn(C)c2OCC(F)F)c1
Plant response rating, Sunflower: 0
--
molecule: Cn1nc(C(F)(F)F)c(C(Cl)S(=O)(=O)c2cccc[n+]2[O-])c1OCC(F)(F)F (racemic)
Plant response rating, Sunflower: 0
--
molecule: C#CCOc1c(CS(=O)(=O)c2cccc[n+]2[O-])c(C(F)(F)F)nn1C
Plant response rating, Sunflower: 35
--
molecule: CC(c1c(C(F)(F)F)nn(C)c1OC(F)F)S(=O)(=O)c1cc(C(C)(C)C)cc[n+]1[O-] (racemic)
Plant response rating, Sunflower: 0
--
molecule: Cn1nc(C(F)(F)F)c(C[S+]([O-])c2cc(Br)cc[n+]2[O-])c1Cl (racemic)
Plant response rating, Sunflower: 0
--
molecule: Cn1nc(C(F)(F)F)c(CS(=O)(=O)c2ccc(Cl)c[n+]2[O-])c1OCC(F)(F)F
Plant response rating, Sunflower: 0
--
molecule: Cn1nc(C(F)(F)F)c(CS(=O)(=O)c2ccc(Cl)c[n+]2[O-])c1Cl
Plant response rating, Sunflower: 0
--
molecule: CCn1nc(C(F)(F)F)c(CS(=O)(=O)c2cc(C)cc[n+]2[O-])c1OCC(F)(F)F
Plant response rating, Sunflower: 0
--
molecule: CCc1cc[n+]([O-])c([S+]([O-])Cc2c(C(F)(F)F)nn(C)c2OC(F)F)c1 (stereo not drawn)
Plant response rating, Sunflower: 0
--
molecule: Cn1nc(C(F)(F)F)c(CS(=O)(=O)c2cccc[n+]2[O-])c1OCC(F)(F)F
Plant response rating, Sunflower: 0
--
molecule: CCc1cc[n+]([O-])c(S(=O)(=O)Cc2c(C(F)(F)F)nn(C)c2OCC(F)(F)F)c1
Plant response rating, Sunflower: 40
--
molecule: C#CCOc1c(C[S+]([O-])c2cccc[n+]2[O-])c(C(F)(F)F)nn1C (stereo not drawn)
Plant response rating, Sunflower: 0
--
molecule: Cn1nc(C(F)(F)F)c(C[S+]([O-])c2cc(F)cc[n+]2[O-])c1Cl (racemic)
Plant response rating, Sunflower: 0
--
molecule: CC(Oc1c(CS(=O)(=O)c2cccc[n+]2[O-])c(C(F)(F)F)nn1C)C(F)(F)F (stereo not drawn)
Plant response rating, Sunflower: 0
--
molecule: Cn1nc(C(F)(F)F)c(C[S+]([O-])c2cc(C(C)(C)C)cc[n+]2[O-])c1OC(F)F (racemic)
Plant response rating, Sunflower: 0
--
molecule: CC(C)c1cc[n+]([O-])c([S+]([O-])Cc2c(C(F)(F)F)nn(C)c2OC(F)F)c1 (stereo not drawn)
Plant response rating, Sunflower: 50
--
molecule: CCn1nc(C(F)(F)F)c(C[S+]([O-])c2cccc[n+]2[O-])c1OCC(F)(F)F (racemic)
Plant response rating, Sunflower: 45
--
molecule: Cc1cc[n+]([O-])c(S(=O)(=O)Cc2c(C(F)(F)F)nn(C)c2OC(C)C(F)(F)F)c1 (stereo not drawn)
Plant response rating, Sunflower: 0

* * *

# reported Plant response rating, Foxtail, Green; entries follow
- Tested on: green foxtail
- assay-summary: Test C pre-/postemergence test
- Format: in vivo, Setaria viridis
- setup-conditions: Postemergence, 125 g ai/ha; scale 0 to 100, 0 no effect, 100 complete control

molecule: Cn1nc(C(F)(F)F)c(C[S+]([O-])c2ccc(Cl)c[n+]2[O-])c1OCC(F)(F)F (racemic) [Compound 62]
Plant response rating, Foxtail, Green: 40
--
molecule: [O-][n+]1cc(Cl)ccc1[S+]([O-])Cc1c(C(F)(F)F)nn(CC(F)(F)F)c1Cl (stereo not drawn) [Compound 47]
Plant response rating, Foxtail, Green: 5
--
molecule: Cc1cc[n+]([O-])c(S(=O)(=O)Cc2c(C(F)(F)F)nn(C)c2OC(F)F)c1 [Compound 2]
Plant response rating, Foxtail, Green: 20
--
molecule: CCn1nc(C(F)(F)F)c(CS(=O)(=O)c2cc(C)cc[n+]2[O-])c1OCC(F)(F)F [Compound 64]
Plant response rating, Foxtail, Green: 50
--
molecule: Cc1cc[n+]([O-])c([S+]([O-])Cc2c(C(F)(F)F)nn(C)c2OC(F)F)c1 (stereo not drawn) [Compound 1]
Plant response rating, Foxtail, Green: 30
--
molecule: CC(c1c(C(F)(F)F)nn(C)c1Cl)S(=O)(=O)c1ccc(Cl)c[n+]1[O-] (racemic) [Compound 40]
Plant response rating, Foxtail, Green: 0

* * *

- Test system: green foxtail
- assay-summary: Test C pre-/postemergence test
- Format: in vivo, Setaria viridis
- setup-conditions: Postemergence, 31 g ai/ha
readout-type: Plant response rating (0 to 100), Foxtail, Green

compound: CC(Oc1c(CS(=O)(=O)c2cccc[n+]2[O-])c(C(F)(F)F)nn1C)C(F)(F)F (stereo not shown)
assay-value: 0
--
compound: CCn1nc(C(F)(F)F)c(C[S+]([O-])c2cccc[n+]2[O-])c1OCC(F)(F)F (racemic)
assay-value: 5
--
compound: CCn1nc(C(F)(F)F)c(C(C)S(=O)(=O)c2cccc[n+]2[O-])c1OCC(F)(F)F (stereo not shown)
assay-value: 0
--
compound: Cn1nc(C(F)(F)F)c(C[S+]([O-])c2ccc(F)c[n+]2[O-])c1OC(F)F (stereo not shown)
assay-value: 0

* * *

- System: lambsquarters
- assay-summary: Test C pre-/postemergence test
- Assay type: in vivo, Chenopodium album
- setup-conditions: Postemergence, 250 g ai/ha; scale 0 to 100, 0 no effect, 100 complete control
# reported Plant response rating, Lambsquarters; entries follow

compound: Cn1nc(C(F)(F)F)c(C[S+]([O-])c2ccc(Cl)c[n+]2[O-])c1OC(F)F (stereo not shown) [Compound 6]
Plant response rating, Lambsquarters: 10
//
compound: Cn1nc(C(F)(F)F)c(C[S+]([O-])c2cccc[n+]2[O-])c1OCC(F)(F)C(F)(F)F (stereo not shown) [Compound 78]
Plant response rating, Lambsquarters: 0
//
compound: CC(Oc1c(CS(=O)(=O)c2cccc[n+]2[O-])c(C(F)(F)F)nn1C)C(F)(F)F (stereo not shown) [Compound 82]
Plant response rating, Lambsquarters: 0
//
compound: Cn1nc(C(F)(F)F)c(C[S+]([O-])c2cccc[n+]2[O-])c1OC(F)F (stereo not shown) [Compound 3]
Plant response rating, Lambsquarters: 20
//
compound: Cn1nc(C(F)(F)F)c(C[S+]([O-])c2ccc(F)c[n+]2[O-])c1OCC(F)(F)F (stereo not shown) [Compound 67]
Plant response rating, Lambsquarters: 10
//
compound: Cn1nc(C(F)(F)C(F)(F)F)c(C[S+]([O-])c2cccc[n+]2[O-])c1OCC(F)(F)F (stereo not shown) [Compound 79]
Plant response rating, Lambsquarters: 70
//
compound: Cc1cc[n+]([O-])c([S+]([O-])Cc2c(C(F)(F)F)nn(C)c2OC(F)F)c1 (stereo not shown) [Compound 1]
Plant response rating, Lambsquarters: 70

* * *

- Test system: corn
- assay-summary: Test A pre-/postemergence greenhouse test
- Format: in vivo, Zea mays
- setup-conditions: Preemergence, 500 g ai/ha; 0 to 100 scale where 0 is no effect and 100 is complete control
readout-type: Plant response rating, Corn

molecule: Cc1cc[n+]([O-])c([S+]([O-])Cc2c(C(F)(F)F)nn(C)c2OC(F)F)c1 (centres unmarked)
target-entity: corn
assay-value: 70

molecule: Cc1cc[n+]([O-])c(S(=O)(=O)Cc2c(C(F)(F)F)nn(C)c2OCC(F)F)c1
target-entity: corn
assay-value: 70

molecule: Cc1cc(S(=O)(=O)Cc2c(C(F)(F)F)nn(C)c2OCC(F)(F)F)[n+]([O-])cc1Cl
target-entity: corn
assay-value: 20

molecule: Cn1nc(C(F)(F)F)c(CS(=O)(=O)c2ccc(Br)c[n+]2[O-])c1OC(F)F
target-entity: corn
assay-value: 0

molecule: Cn1nc(C(F)(F)F)c(CS(=O)(=O)c2ccc(Cl)c[n+]2[O-])c1OCC(F)F
target-entity: corn
assay-value: 0

molecule: Cc1cc[n+]([O-])c([S+]([O-])Cc2c(C(F)(F)F)nn(C)c2OCC(F)(F)F)c1 (racemic)
target-entity: corn
assay-value: 70

molecule: Cc1cc[n+]([O-])c([S+]([O-])Cc2c(C(F)(F)F)nn(C)c2Cl)c1 (racemic)
target-entity: corn
assay-value: 60

molecule: Cn1nc(C(F)(F)F)c(C[S+]([O-])c2cc(C(F)(F)F)cc[n+]2[O-])c1Cl (racemic)
target-entity: corn
assay-value: 0
